The measurements presented in this section are drawn from PubChem BioAssay (Tox21).

Test protocol: Caspase-3/7 induction in CHO-K1 cells by small molecules, qHTS cell viability counter screen (AID 1346979); further: nearly all actives have a fitted effect of over 35% in size
Particulars: CellTiter-Fluor fluorescence, 17 h; series mostly up to 92.4 µM
Inconclusive results are not listed. The source made the active and inactive calls. The call rests on the fitted dose curve; in most records, active means well fitted cell-killing curve with a large enough effect in the repeat runs; inconclusive means weak or mixed curves, or effect the other way; inactive means no such curve, though single readings can be large or run the other way.
Field 'call' accepts active, inactive

Kindly provide the recorded test outcome for the following compound: C1=CC2C3C=CC(C3)C2C1 (stereo not drawn)
inactive

Others:
Kindly provide the recorded test outcome for the following compound: CCCc1cc(=O)[nH]c(=S)[nH]1
inactive

Do the same for Cc1ncc([N+](=O)[O-])n1CCO please
inactive

Do the same for Nc1c2c(nc3ccccc13)CCCC2 please
inactive

Do the same for CCN(Cc1c(F)cccc1Cl)c1c([N+](=O)[O-])cc(C(F)(F)F)cc1[N+](=O)[O-] please
active

Do the same for CC(O)(P(=O)(O)O)P(=O)(O)O please
inactive

Do the same for CS(=O)(=O)OCCCCOS(C)(=O)=O please
inactive

Do the same for CN(C)CCOC(c1ccccc1)c1ccccc1 please
inactive

Do the same for C/C=C/C=C/C(=O)O please
inactive

Do the same for C=CCc1ccc(O)c(OC)c1 please
inactive

Do the same for O=C(Nc1ncc([N+](=O)[O-])s1)c1cccs1 please
active

Do the same for CC/C(=C(\c1ccccc1)c1ccc(OCCN(C)C)cc1)c1ccccc1 please
active

Do the same for O=C1c2c(O)cccc2Cc2cccc(O)c21 please
inactive

Do the same for Cc1ncc([N+](=O)[O-])n1C please
inactive

Do the same for Nc1ccc(O)c([N+](=O)[O-])c1 please
active

Do the same for CN[C@H]1CC[C@@H](c2ccc(Cl)c(Cl)c2)c2ccccc21 please
active

Do the same for NS(=O)(=O)c1cc2c(cc1Cl)NCNS2(=O)=O please
inactive

Do the same for Nc1ccc([N+](=O)[O-])cc1O please
active

Do the same for O=C1O[C@H]([C@@H](O)CO)C(O)=C1O please
inactive

Do the same for COc1ccc(C(Cl)=C(c2ccc(OC)cc2)c2ccc(OC)cc2)cc1 please
inactive

Do the same for CC(=O)CCC(=O)O please
inactive

----------
Test protocol: A CellTox Green Cytotoxicity Assay to monitor cytotoxicity in HEK293 cells - 16 hour (AID 1224888); further: nearly all actives have a fitted effect of over 35% in size; further: potency means the concentration at half of the fitted maximal effect
Particulars: CellTox Green fluorescence; series mostly up to 76.8 µM
Records with an inconclusive call do not appear. Active and inactive are the calls of the source. The call rests on the fitted dose curve; in most records, active means well fitted activation curve with a large enough effect in the repeat runs; inconclusive means weak or mixed curves; inactive means flat fitted curve, though single readings scatter.
Observation type: Potency

Some compounds with recorded Potency:
Suppose we examine the compound NS(=O)(=O)c1cc2c(cc1Cl)NCNS2(=O)=O ; what Potency value has been reported?
inactive

Do the same for CC(=O)C(=O)O please
inactive

Do the same for Nc1c(N=Nc2ccc(-c3ccc(N=Nc4cc(S(=O)(=O)O)c5ccccc5c4N)cc3)cc2)cc(S(=O)(=O)O)c2ccccc12 please
inactive

Do the same for COc1ccc(CN(CCN(C)C)c2ccccn2)cc1 please
inactive

Do the same for CCCCOC(=O)c1ccc(O)cc1 please
inactive

Others:
Suppose we examine the compound CC12CCC(CC1)C(C)(C)O2 ; what Potency value has been reported?
inactive

Do the same for O=C(O)CC(O)C(=O)O (centres undefined) please
inactive

Do the same for O=CC(=O)c1ccccc1 please
inactive

Do the same for CN(C)CCOC(C)(c1ccccc1)c1ccccn1 (centres undefined) please
inactive

Do the same for Nc1ccc2c(c1)CN1C(=O)c3ccccc3C1=N2 please
10.4 µM (active)

Do the same for CN1CCC[C@H]1c1cccnc1 please
inactive

Do the same for CC1(C)S[C@@H]2[C@H](NC(=O)[C@H](N)c3ccccc3)C(=O)N2[C@H]1C(=O)O please
inactive

Do the same for CCCCCCCC(=O)OCC(COC(=O)CCCCCCC)OC(=O)CCCCCCC please
inactive

Do the same for CCCCC1(COC(=O)CCC(=O)O)C(=O)N(c2ccccc2)N(c2ccccc2)C1=O please
inactive

Do the same for CCCCNC(=O)NS(=O)(=O)c1ccc(C)cc1 please
inactive

Do the same for COc1ccc2c(c1)c(CC(=O)O)c(C)n2C(=O)c1ccc(Cl)cc1 please
inactive

Do the same for Cc1ccc(S(=O)(=O)O)cc1 please
inactive

Do the same for C=CCc1ccc(O)c(OC)c1 please
inactive

Do the same for Cc1ncc([N+](=O)[O-])n1CCO please
inactive
